assay-remarks: Pharmacokinetics (plasma and brain levels) in ICR (CD-1) mice
Assay type: in vivo
experimental-conditions: male, ICR (CD-1), mouse, brain, iv, 1 mg/kg, i.v. 1 mg/kg, mouse brain, 24.0 h; read-out: Conc. in brain, individual animal
observed-property: concentration at 24 h (ng/g)
Give a bare numeral; the unit ng/g is implied.

Entry `CC(=O)Nc1ccc(-c2cnc3cc(Cl)ccc3n2)cc1` , concentration at 24 h reported as 0

* * *

assay-remarks: Pharmacokinetics (plasma and brain levels) in ICR (CD-1) mice
Assay type: in vivo
experimental-conditions: male, ICR (CD-1), mouse, brain/plasma, iv, 1 mg/kg, i.v. 1 mg/kg, mouse, 2.00 h; read-out: Brain/Plasma ratio, Mean
observed-property: Kp at 2 h
API doc: respond with a numeric literal and nothing else, no unit.

Entry CC(=O)Nc1ccc(C2=Nc3ccc(Cl)cc3OC2)cc1 [CA77, reference compound] , Kp at 2 h reported as 183

Entry CC(=O)Nc1ccc(-c2cnc3cc(Cl)ccc3n2)cc1 [CA77.1] , Kp at 2 h reported as 6.22

* * *

assay-remarks: Pharmacokinetics (plasma and brain levels) in ICR (CD-1) mice
Type: in vivo
experimental-conditions: male, ICR (CD-1), mouse, brain/plasma, iv, 1 mg/kg, i.v. 1 mg/kg, mouse, 0.50 h; read-out: Brain/Plasma ratio, Mean
observed-property: Kp at 0.5 h
API doc: respond with a numeric literal and nothing else, no unit.

Entry CC(=O)Nc1ccc(C2=Nc3ccc(Cl)cc3OC2)cc1 [CA77, reference compound] , Kp at 0.5 h reported as 151

Entry `CC(=O)Nc1ccc(-c2cnc3cc(Cl)ccc3n2)cc1` , Kp at 0.5 h reported as 3.92

* * *

assay-remarks: in vitro
experimental-conditions: human, microsomes, 1 h, 3 μM
Give measured Remaining (T = 60 min) for each item. Keep answers brief.
Give a bare numeral; the unit % is implied.

Entry `CC(=O)Nc1ccc(-c2cnc3cc(Cl)ccc3n2)cc1` , Remaining (T = 60 min) reported as 10.8

Entry CC(=O)Nc1ccc(C2=Nc3ccc(Cl)cc3OC2)cc1 [CA77, reference compound] , Remaining (T = 60 min) reported as 25.9

Entry Clc1ccc2c(c1)OCC(c1ccc(-c3ccccc3)cc1)=N2 [CA39, reference compound] , Remaining (T = 60 min) reported as 30.1

Entry `Clc1ccc2nc(-c3ccc(-c4ccccc4)cc3)cnc2c1` , Remaining (T = 60 min) reported as 96.0

* * *

assay-remarks: Pharmacokinetics (plasma and brain levels) in ICR (CD-1) mice
Format: in vivo
experimental-conditions: male, mouse, plasma, iv; i.v. 1 mg/kg, ICR (CD-1) mice; read-out: AUCINF_obs
observed-property: AUC(0-inf) (ng·h/mL)
Give a bare numeral; the unit ng·h/mL is implied.

Entry `CC(=O)Nc1ccc(-c2cnc3cc(Cl)ccc3n2)cc1` , AUC(0-inf) reported as 315

* * *

assay-remarks: Pharmacokinetics (plasma and brain levels) in ICR (CD-1) mice
Assay type: in vivo
experimental-conditions: male, ICR (CD-1), mouse, brain/plasma, iv, 1 mg/kg, i.v. 1 mg/kg, mouse, 8.00 h; read-out: Brain/Plasma ratio, Mean
observed-property: Kp at 8 h
API doc: respond with a numeric literal and nothing else, no unit.

Entry CC(=O)Nc1ccc(-c2cnc3cc(Cl)ccc3n2)cc1 [CA77.1] , Kp at 8 h reported as 2.23

* * *

assay-remarks: Pharmacokinetics (plasma and brain levels) in ICR (CD-1) mice
Format: in vivo
experimental-conditions: male, mouse, plasma, po; p.o. 10 mg/kg, ICR (CD-1) mice; read-out: AUCINF_obs
observed-property: AUC(0-inf) (ng·h/mL)
Give a bare numeral; the unit ng·h/mL is implied.

Entry CC(=O)Nc1ccc(-c2cnc3cc(Cl)ccc3n2)cc1 [CA77.1] , AUC(0-inf) reported as 1460

* * *

assay-remarks: Pharmacokinetics (plasma and brain levels) in ICR (CD-1) mice
Assay type: in vivo
experimental-conditions: male, ICR (CD-1), mouse, brain/plasma, iv, 1 mg/kg, i.v. 1 mg/kg, mouse, 1.00 h; read-out: Brain/Plasma ratio, Mean
observed-property: Kp at 1 h
API doc: respond with a numeric literal and nothing else, no unit.

Entry CC(=O)Nc1ccc(C2=Nc3ccc(Cl)cc3OC2)cc1 [CA77, reference compound] , Kp at 1 h reported as 159

Entry `CC(=O)Nc1ccc(-c2cnc3cc(Cl)ccc3n2)cc1` , Kp at 1 h reported as 7.52

* * *

assay-remarks: Pharmacokinetics (plasma and brain levels) in ICR (CD-1) mice
Type: in vivo
experimental-conditions: male, ICR (CD-1), mouse, brain, iv, 1 mg/kg, i.v. 1 mg/kg, mouse brain, 1.00 h; read-out: Conc. in brain, Mean
Give measured concentration at 1 h for each item. Keep answers brief.
Give a bare numeral; the unit ng/g is implied.

Entry CC(=O)Nc1ccc(C2=Nc3ccc(Cl)cc3OC2)cc1 [CA77, reference compound] , concentration at 1 h reported as 2460

Entry `CC(=O)Nc1ccc(-c2cnc3cc(Cl)ccc3n2)cc1` , concentration at 1 h reported as 669

* * *

assay-remarks: Pharmacokinetics (plasma and brain levels) in ICR (CD-1) mice
Type: in vivo
experimental-conditions: male, ICR (CD-1), mouse, brain/plasma, iv, 1 mg/kg, i.v. 1 mg/kg, mouse, 0.25 h; read-out: Brain/Plasma ratio, Mean
Give measured Kp at 0.25 h for each item. Keep answers brief.
API doc: respond with a numeric literal and nothing else, no unit.

Entry `CC(=O)Nc1ccc(-c2cnc3cc(Cl)ccc3n2)cc1` , Kp at 0.25 h reported as 6.19

Entry CC(=O)Nc1ccc(C2=Nc3ccc(Cl)cc3OC2)cc1 [CA77, reference compound] , Kp at 0.25 h reported as 122

* * *

assay-remarks: in vitro
experimental-conditions: human, microsomes, CLint(liver)
Give measured CLint scaled at 3 μM for each item. Keep answers brief.
Give a bare numeral; the unit mL/min/kg is implied.

Entry `O=C(O)Cc1ccccc1Nc1c(Cl)cccc1Cl` , CLint scaled at 3 μM reported as 94.4

Entry CC(=O)Nc1ccc(C2=Nc3ccc(Cl)cc3OC2)cc1 [CA77, reference compound] , CLint scaled at 3 μM reported as 36.7

Entry Clc1ccc2c(c1)OCC(c1ccc(-c3ccccc3)cc1)=N2 [CA39, reference compound] , CLint scaled at 3 μM reported as 32.9

Entry `CC(=O)Nc1ccc(-c2cnc3cc(Cl)ccc3n2)cc1` , CLint scaled at 3 μM reported as 60.5

* * *

assay-remarks: Pharmacokinetics (plasma and brain levels) in ICR (CD-1) mice
Type: in vivo
experimental-conditions: male, mouse, plasma, po; p.o. 10 mg/kg, ICR (CD-1) mice; read-out: Tmax
observed-property: Tmax (h)
Give a bare numeral; the unit h is implied.

Entry `CC(=O)Nc1ccc(-c2cnc3cc(Cl)ccc3n2)cc1` , Tmax reported as 1

* * *

assay-remarks: Pharmacokinetics (plasma and brain levels) in ICR (CD-1) mice
Assay type: in vivo
experimental-conditions: male, ICR (CD-1), mouse, brain/plasma, iv, 1 mg/kg, i.v. 1 mg/kg, mouse, 4.00 h; read-out: Brain/Plasma ratio, Mean
Give measured Kp at 4 h for each item. Keep answers brief.
API doc: respond with a numeric literal and nothing else, no unit.

Entry CC(=O)Nc1ccc(C2=Nc3ccc(Cl)cc3OC2)cc1 [CA77, reference compound] , Kp at 4 h reported as 210

Entry `CC(=O)Nc1ccc(-c2cnc3cc(Cl)ccc3n2)cc1` , Kp at 4 h reported as 4

* * *

System: chaperone-mediated autophagy (CMA) in NIH 3T3 fibroblasts
assay-remarks: Photoswitchable KFERQ-Dendra CMA reporter assay in NIH 3T3 fibroblasts
Assay type: cell-based
experimental-conditions: Time 20
Give measured CMA activity (fluorescent puncta per cell, relative to untreated cells = 1) for each item. Keep answers brief.

Entry Clc1ccc2nc(-c3ccc(-c4ccccc4)cc3)cnc2c1 [CA39.1] , CMA activity (fluorescent puncta per cell, relative to untreated cells = 1) reported as 2.605

Entry CC(=O)Nc1ccc(-c2cnc3cc(Cl)ccc3n2)cc1 [CA77.1] , CMA activity (fluorescent puncta per cell, relative to untreated cells = 1) reported as 5.858

Entry Clc1ccc2c(c1)OCC(c1ccc(-c3ccccc3)cc1)=N2 [CA39, reference compound] , CMA activity (fluorescent puncta per cell, relative to untreated cells = 1) reported as 3.587

Entry CC(=O)Nc1ccc(C2=Nc3ccc(Cl)cc3OC2)cc1 [CA77, reference compound] , CMA activity (fluorescent puncta per cell, relative to untreated cells = 1) reported as 5.005

* * *

assay-remarks: Metabolic stability in human liver microsomes
experimental-conditions: T1/2, human microsomes, 3 μM compound, 0.5 mg/mL protein, 1 mM NADPH
Experimental: Microsome stability was determined in human, rat, and mouse, liver microsomes. Compound at 3 μM final concentration along with 0.5 mg/mL microsome protein and 1 mM NADPH was incubated for 0, 5, 15, 30 and 60 min. […] Supernatants were analyzed (N=3) by LC-MS/MS. The In peak area ratio (compound peak area/internal standard peak area) was plotted against time and the gradient of the line determined the elimination rate constant [k=(−1)(slope)]. […]
observed-property: half-life at 3 μM (min)
Give a bare numeral; the unit min is implied.

Entry C[C@]12CC[C@H]3[C@@H](CCC4=CC(=O)CC[C@@]43C)[C@@H]1CC[C@@H]2O [Testosterone] , half-life at 3 μM reported as 57.5

Entry O=C(O)Cc1ccccc1Nc1c(Cl)cccc1Cl [Diclofenac] , half-life at 3 μM reported as 15.7
